# study-target: 5-hydroxytryptamine receptor 2A (Homo sapiens) (UniProt P28223)
# Sequence (P28223 whole entry, looked up): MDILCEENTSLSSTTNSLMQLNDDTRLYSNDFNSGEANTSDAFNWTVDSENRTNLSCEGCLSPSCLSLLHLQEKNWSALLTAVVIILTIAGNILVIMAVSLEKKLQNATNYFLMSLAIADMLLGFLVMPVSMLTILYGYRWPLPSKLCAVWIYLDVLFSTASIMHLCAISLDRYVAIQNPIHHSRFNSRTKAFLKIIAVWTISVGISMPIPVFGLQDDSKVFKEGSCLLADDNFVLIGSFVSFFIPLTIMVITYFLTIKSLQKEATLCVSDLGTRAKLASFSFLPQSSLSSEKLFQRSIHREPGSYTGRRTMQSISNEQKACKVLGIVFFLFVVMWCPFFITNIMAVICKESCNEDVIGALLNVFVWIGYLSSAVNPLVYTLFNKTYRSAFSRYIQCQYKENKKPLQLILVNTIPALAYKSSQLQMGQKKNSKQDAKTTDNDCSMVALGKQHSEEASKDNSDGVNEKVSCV
# protocol-details: 5-hydroxytryptamine receptor 2A (HTR2A) small molecule agonists, cell-based qHTS assay (AID 1963587); note: nearly all actives have a fitted effect of over 30% in size
# condition-details: HTR2A-CHO cells, calcium flux fluorescence, agonist mode; series mostly up to 76.8 µM
Results filed as inconclusive are left out. Activity calls are given as the source filed them. Calls come from the whole dose curve.
Outcomes: active, inactive

compound	qualitative-label
CCc1ccc(C)cc1	inactive
Cc1cc(CCN2CCN(c3nsc4ccccc34)CC2)cc2c1NC(=O)CC2(C)C	inactive
C=Cc1ccc(C(C)(C)C)cc1	inactive
CC(C)NCC(O)COc1ccc(CCOCC2CC2)cc1 (configuration not stated)	inactive
Nc1ccc(N)c2ccccc12	active
CCc1cc(Cc2cc(CC)c(N)c(CC)c2)cc(CC)c1N	inactive
CC(=O)Oc1ccc([N+](=O)[O-])cc1CCl	inactive
O=C(NCC(O)CO)c1c(I)c(C(=O)NCC(O)CO)c(I)c(N(CCO)C(=O)CO)c1I (configuration not stated)	inactive
CO/N=C(/C(=O)N[C@@H]1C(=O)N2C(C(=O)OCOC(=O)C(C)(C)C)=C(C)CS[C@H]12)c1csc(N)n1	inactive
Cc1cccc(N(C)C(=S)Oc2ccc3c(c2)C2CCC3C2)c1 (configuration not stated)	inactive
CC(C)=CC=O	inactive
CO[C@@]1(NC(=O)Cc2cccs2)C(=O)N2C(C(=O)O)=C(COC(N)=O)CS[C@@H]21	inactive

Attribution: PubChem BioAssay (Tox21)
